System: Bacillus subtilis, ATCC 23857
Method description: Minimal inhibitory concentration assay (microbroth dilution)
Assay type: cell-based
Details: Bacillus subtilis, ATCC23857, read-out: Minimal Inhibitory Concentrations B. subtilis ATCC 23857
*1 amine or outer side, *2 acyl side, *3 side chain or, on linkers, in order; H or OH if unused. Where a SMILES comes first, the peptide text is derived from it. Bridges are numbered along the chain shown (N, C = ends). [ ]: non-standard residue; d: D form. The star is where a group is joined. Phe(3,5-F2) = N[C@@H](Cc1cc(F)cc(F)c1)C(=O)O; NH(1-Me-indolin-5-yl) = CN1CCc2cc(N*)ccc21; Morpholine(3S-CO) = O=C(O)[C@@H]1COCCN1; Pro(4S-Me) = C[C@@H]1CN[C@H](C(=O)O)C1; Pro(4R-Me) = C[C@H]1CN[C@H](C(=O)O)C1; NMeT = CN[C@H](C(=O)O)[C@@H](C)O; NH(4-Me-phenyl) = Cc1ccc(N*)cc1; aThr = C[C@H](O)[C@H](N)C(=O)O; CO = O=C([*:1])[*:2]
MIC values, listed per item
Express the result in µM but write the number alone.

[
  {
    "Molecule": "Cc1ccc(NC(=O)N[C@@H](Cc2cc(F)cc(F)c2)C(=O)N[C@@H]2C(=O)N3CCC[C@H]3C(=O)N(C)[C@@H]([C@@H](C)O)C(=O)N[C@@H](C)C(=O)N3C[C@@H](C)C[C@H]3C(=O)O[C@H]2C)cc1 [Compound 35] ({NH(4-Me-phenyl)-CO}-[Phe(3,5-F2)][aThr]P[NMeT]A[Pro(4S-Me)]; ester 2-C)",
    "MIC / µM": 0.2
  },
  {
    "Molecule": "C[C@@H]1C[C@H]2C(=O)O[C@@H](C)[C@H](NC(=O)[C@H](Cc3cc(F)cc(F)c3)NC(=O)Nc3ccc4c(c3)CCN4C)C(=O)N3CCC[C@H]3C(=O)N3CCOC[C@H]3C(=O)N[C@@H](C)C(=O)N2C1 [Compound 312] ({NH(1-Me-indolin-5-yl)-CO}-[Phe(3,5-F2)][aThr]P[Morpholine(3S-CO)]A[Pro(4R-Me)]; ester 2-C)",
    "MIC / µM": 0.313
  }
]

Shift focus to the following entry.
Please look up its MIC: Cc1ccc(NC(=O)N[C@@H](Cc2cc(F)cc(F)c2)C(=O)N[C@@H]2C(=O)N3CCC[C@H]3C(=O)N(C)[C@@H]([C@@H](C)O)C(=O)N[C@@H](C)C(=O)N3C[C@H](C)C[C@H]3C(=O)O[C@H]2C)cc1 [Compound 38] ({NH(4-Me-phenyl)-CO}-[Phe(3,5-F2)][aThr]P[NMeT]A[Pro(4R-Me)]; ester 2-C)
0.05
